Values were extracted from paper PMC5540273.

System: FYN
Details: concentration: 1 μM, replicates: in singlicate; n = 1
measure: %Inh

Recorded %Inh, per entry:
Cl.Cn1ccc(-c2cccc(Nc3ccnc4cc(-c5nccs5)ccc34)c2)n1 [GW525701] | 3%
Cl.O=S(=O)(c1cccc(F)c1)c1ccc(Nc2ncnc3cc(Br)sc23)cc1Cl [GSK306886] | 41%
CS(=O)(=O)CCNCc1nc(-c2ccc3ncnc(Nc4ccc(OCc5cccc(F)c5)c(Cl)c4)c3c2)cs1.Cl [GW583340] | 35%

%Inh reading for COc1cc2ncnc(Nc3ccc(OCc4ccccc4Br)c(Cl)c3)c2cc1OC.Cl [GI261590] : 0%

----------
Below, each entry is listed with its recorded %Inh.
System: FGFR4
Conditions: concentration: 1 μM, replicates: in singlicate; n = 1
Form entry: value (%) — number only.

Recorded %Inh, per entry:
COc1ccc(-c2nc3n(c2-c2ccncc2)CCC3)cc1 | 8
C[C@@H]1CCN(C(=O)CO)C[C@@H]1N(C)c1ncnc2[nH]ccc12 | 0
CCc1nc(-c2cccc(N(C)S(=O)(=O)c3ccccc3)c2)c(-c2ccnc(Nc3ccc(N4CCN(C(C)=O)CC4)nc3)n2)s1 | 0

Now take the following compound into account.
%Inh reading for O=C(Nc1n[nH]c2nc(-c3ccco3)c(Br)cc12)c1ccc(CN2CCCC2)cc1.O=C(O)[C@H](O)[C@@H](O)C(=O)O : 0

----------
Below, each entry is listed with its recorded %Inh.
System: CDK4-cyclinD1
Settings: concentration: 1 μM, replicates: in singlicate; n = 1
Form entry: value (%) — number only.

Recorded %Inh, per entry:
CNc1nccc(-c2c(-c3ccc(F)cc3)ncn2CCCN2CCOCC2)n1 | 17
Oc1ccc2ncnc(Nc3ccc(OCc4ccccc4)cc3)c2c1 | 0
COc1cc2ncnc(Nc3ccc(OCc4ccccc4Br)c(Cl)c3)c2cc1OC.Cl | 13
CS(=O)(=O)CCNCc1ccc(-c2ccc3ncnc(Nc4ccc(OCc5ccccc5)c(Cl)c4)c3c2)o1.Cl | 21
Nc1nc(-c2ccccn2)c(-c2ccnc3ccccc23)s1 | 49
CCn1c(-c2ccncc2)nc2cnccc21 | 0
O=C(Nc1ccccc1)Nc1ccc(Oc2ccc3nccn3n2)cc1 | 0
COC(=O)c1c(-c2ccccc2)c2cc(Cl)ccc2c(=O)n1Cc1ccc(S(C)(=O)=O)cc1 | 0
FC(F)(F)c1ccc(-c2nn3ncccc3c2-c2ccnc(Nc3cccc(C(F)(F)F)c3)n2)cc1 | 2

Now take the following compound into account.
%Inh reading for CNc1nccc(-c2c(-c3ccc(F)cc3)ncn2C2CCN(C)CC2)n1 : 0

----------
Test system: FGR
Conditions: concentration: 1 μM, replicates: in singlicate; n = 1
measure: %Inh
Give the number first and the unit second.

FC(F)(F)c1ccc(-c2cc(-c3c[nH]nc3-c3ccccn3)ccn2)cc1 | 14%

%Inh reading for Nc1n[nH]c2nnc(-c3ccccc3)cc12 : 29%

%Inh reading for Cc1ccc(C)c(NC(=O)NCCNc2ccnc(Nc3ccc(F)cc3)n2)c1 : 4%

%Inh reading for Clc1cccc(-c2nc(Nc3ccncc3)c3ccccc3n2)c1 : 55%

%Inh reading for COc1ccc(Nc2nccc(N3CCC(NC(=O)Nc4ccc5c(c4)OCO5)C3)n2)cc1 (stereo not drawn) : 28%

%Inh reading for O=C(CCO)NCCn1ccc2ncnc(Nc3ccc(Oc4cccc(C(F)(F)F)c4)c(Cl)c3)c21 : 5%

%Inh reading for COc1ccc(-c2oc3ncnc(N)c3c2-c2ccc(OC)cc2)cc1 : 43%

----------
Test system: ADCK3
Construct: gene CABC1
Conditions: concentration: 1 μM, replicates: in singlicate; n = 1
measure: %Inh (%)
Form entry: value (%) — number only.

Recorded %Inh, per entry:
FC(F)(F)c1ccc(-c2cc(-c3c[nH]nc3-c3ccccn3)ccn2)cc1 | 9
FC(F)(F)c1cc(Nc2nccc(-c3c(-c4ccc(Cl)cc4)nn4ncccc34)n2)ccc1Cl | 0
O=C(Nc1ccccc1)Nc1ccc(Oc2ccc3nccn3n2)cc1 | 15
Fc1ccc(Nc2nccc(-c3c(-c4ccc(Cl)cc4)nn4ncccc34)n2)cc1F | 0
Clc1cccc(-c2nc(Nc3ccncc3)c3ccccc3n2)c1 | 30

%Inh reading for Fc1cccc(COc2ccc(Nc3ncnc4cc[nH]c34)cc2Cl)c1 : 1

----------
Tested on: SRC
Conditions: concentration: 1 μM, replicates: in singlicate; n = 1
measure: %Inh (%)
Form entry: value (%) — number only.

Recorded %Inh, per entry:
COc1cc2c(Nc3cccc(NC(=O)c4ccccc4)c3)ncnc2cc1OCCCN1CCOCC1 | 94.7
CN1CCC(n2cnc(-c3ccc(F)cc3)c2-c2ccnc(NC3CCNCC3)n2)CC1 | 0
C[C@@H]1CCN(C(=O)CO)C[C@@H]1N(C)c1ncnc2[nH]ccc12 | 6

%Inh reading for COc1ccc(-c2oc3ncnc(N)c3c2-c2ccc(OC)cc2)cc1 : 40

%Inh reading for Cl.O=S(=O)(c1cccc(F)c1)c1ccc(Nc2ncnc3cc(Br)sc23)cc1Cl : 0

----------
Below, each entry is listed with its recorded %Inh.
Tested on: AURKC
Details: concentration: 1 μM, replicates: in singlicate; n = 1
Form entry: value (%) — number only.

Recorded %Inh, per entry:
c1ccc(-c2ccc3c(-c4ccnc(Nc5ccc6c(c5)OCCO6)n4)cnn3n2)cc1 | 26
Cn1ccc2ncnc(Oc3ccc(NC(=O)Nc4cccnc4)c(Cl)c3)c21 | 0

Now take the following compound into account.
Summary: Fc1cccc(COc2ccc(Nc3ncnc4nn5ccccc5c34)cc2Cl)c1 , AURKC, %Inh = 6

----------
Below, each entry is listed with its recorded %Inh.
Tested on: NEK2
Conditions: concentration: 1 μM, replicates: in singlicate; n = 1
Give the number first and the unit second.

Recorded %Inh, per entry:
Nc1nccc2scc(-c3ccc4c(c3)CCN4C(=O)Cc3cc(F)ccc3F)c12 [GSK2587663] | 7%
CCCc1ccc(S(=O)(=O)NC2CCN(c3ccnc(Nc4ccc(OC)cc4)n3)C2)cc1 (centres unmarked) [GSK1379737] | 0%
N#Cc1ccc(Oc2ccc(Nc3ncnc4cc[nH]c34)cc2Cl)cc1 | 10%
COC(=O)c1c(-c2ccccc2)c2cc(Cl)ccc2c(=O)n1Cc1ccc(S(C)(=O)=O)cc1 | 83%

%Inh reading for c1ccc(-c2ccc3c(-c4ccnc(Nc5ccc6c(c5)OCCO6)n4)cnn3n2)cc1 [GW818941] : 0%

%Inh reading for Fc1cccc(COc2ccc(Nc3ncnc4sc(-c5ccc[nH]5)cc34)cc2Cl)c1 [GW707818] : 15%

%Inh reading for COc1cc2c(Nc3cccc(NC(=O)c4ccccc4)c3)ncnc2cc1OCCCN1CCOCC1 [GSK223810] : 2%

%Inh reading for Fc1cccc(COc2ccc(Nc3ncnc4nn5ccccc5c34)cc2Cl)c1 [GW689066] : 0%

----------
Below, each entry is listed with its recorded %Inh.
Test system: AMPK-alpha1
Construct: gene PRKAA1
Conditions: concentration: 1 μM, replicates: in singlicate; n = 1
Form entry: value (%) — number only.

Recorded %Inh, per entry:
Cc1ccc(NC(=O)c2cccc(C#N)c2)cc1-c1ccc(C(=O)Nc2ccncc2)cc1 [GSK1398463] | 0
Cl.Fc1ccccc1COc1ccc(Nc2ncnc3ccc(-c4nnc(C(F)(F)F)o4)cc23)cc1Cl [GW424170] | 0
COc1ccc(NC(=O)Nc2ccc(C)c(-c3ccc(C(=O)Nc4ccncc4)cc3)c2)cc1 [GSK1398475] | 0
Cl.Cl.c1ccc(-c2cc3ccncc3cc2OC2CCNCC2)cc1 [GSK1122999] | 16
Cn1ccc2ncnc(Nc3ccc(Oc4cccc(Cl)c4)c(Cl)c3)c21 | 18
Cl.Cn1ccc(-c2cccc(Nc3ccnc4cc(-c5nccs5)ccc34)c2)n1 [GW525701] | 0
O=C(NCCCN1CCCC1=O)c1cnc(NCc2cc(Cl)ccc2Cl)nc1NC1CCNCC1 | 18
CNc1nccc(-c2c(-c3ccc(F)cc3)ncn2CCCN2CCOCC2)n1 [SB-222516] | 0

Now take the following molecule into account.
%Inh reading for Nc1nc(-c2ccc3c(N)n[nH]c3c2)cc(N2CCCCC2)n1 [GSK2228768] : 0

----------
System: TEC;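 also: kd values determined as follow-up on hits from a single-replicate KINOMEscan panel screen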
measure: Kd

Summary: Cc1ccc(O)cc1Nc1cc(C(F)(F)F)nc2ccc(-c3ccncc3)cc12 [GW630823] , TEC, Kd = > 10 µM

----------
Test system: EPHA8
Details: concentration: 1 μM, replicates: in singlicate; n = 1
Would you mind labelling by %Inh? At or over 9% is fulfilled, under is not fulfilled.

The following compounds have reported results that may help.
Fc1cccc(COc2ccc(Nc3ncnc4sc(-c5ccc[nH]5)cc34)cc2Cl)c1 [GW707818] | not fulfilled
CCc1nc(-c2cccc(C)c2)c(-c2ccnc(NC(=O)c3ccccc3)c2)s1 | fulfilled
Nc1nccc2scc(-c3ccc4c(c3)CCN4C(=O)Cc3cc(F)ccc3F)c12 [GSK2587663] | fulfilled
COc1ccc(Nc2nccc(N3CCC(NC(=O)c4cccc(NC(C)=O)c4)C3)n2)cc1 (stereo not shown) [GSK1379732] | not fulfilled
FC(F)(F)c1ccc(-c2nn3ncccc3c2-c2ccnc(Nc3cccc(C(F)(F)F)c3)n2)cc1 [GW828205] | not fulfilled

Could you now look at the following compound, please?
Can O=C(NCCCN1CCCC1=O)c1cnc(NCc2cc(Cl)ccc2Cl)nc1NC1CCNCC1 be said to have %Inh at or above 9%?
not fulfilled
